Entries and their T/C
- Tested on: L1210 leukemia ip in BDF1 mice, survival T/C
- Method description: NCI In Vivo Anticancer Drug Screen. Data for tumor model L1210 Leukemia (intraperitoneal) in B6D2F1 (BDF1) mice
- Settings: endpoint: mean survival time; dose: 400.0 mg/kg/injection; schedule: Q04DX002 (ip); vehicle: Klucel (hydroxypropylcellulose) (HPC); higher = longer survival
Inconclusive results and toxic doses are left out.

As a guide, the following entries are already answered.
Record COc1ccccc1NC(=O)N(Cc1ccccc1)C(C)(C)C . Reported T/C: 88 % of control

Record CCN(CC)C(=S)Oc1c(C(C)(C)C)cc([N+](=O)[O-])c(C)c1[N+](=O)[O-] . Reported T/C: 97 % of control

--- query ---
Record Cc1ccc(OCCOC(=O)COc2ccc(Cl)cc2Cl)cc1C . Reported T/C: 102 % of control

----------
Entries and their T/C
- System: L1210 leukemia ip in BDF1 mice, survival T/C
- Method description: NCI In Vivo Anticancer Drug Screen. Data for tumor model L1210 Leukemia (intraperitoneal) in B6D2F1 (BDF1) mice
- Settings: endpoint: mean survival time; dose: 150.0 mg/kg/injection; schedule: Q04DX003 (ip); vehicle: saline; higher = longer survival
Toxic doses and inconclusive results are not listed.

Record O=C(O)C1=CCCc2ccc3ccccc3c21 . Reported T/C: 100 % of control

Record O=C(O)CCCCOc1ccccc1 . Reported T/C: 103 % of control

Record N=C(N)CCc1ccccc1 . Reported T/C: 98 % of control

Record ClCCN1CCN(CCCN2c3ccccc3CCc3ccccc32)CC1 . Reported T/C: 93 % of control

----------
Entries and their T/C
- Tested on: L1210 leukemia ip in BDF1 mice, survival T/C
- Method description: NCI In Vivo Anticancer Drug Screen. Data for tumor model L1210 Leukemia (intraperitoneal) in B6D2F1 (BDF1) mice
- Settings: endpoint: mean survival time; dose: 50.0 mg/kg/injection; schedule: Q04DX002 (ip); vehicle: saline with Tween-80; higher = longer survival
- Method: The antitumor activity of compounds was measured in mice bearing transplantable tumors. Survival or tumor size were measured and the results are expressed as the measurement made in the treated group (T) divided by the measurement made in the vehicle treated control group (C). The tumor model used in this assay is L1210 Leukemia (intraperitoneal) in B6D2F1 (BDF1) mice
Inconclusive results and toxic doses are left out.

Record CN(C)N=Nc1ccc(S(C)(=O)=O)cc1 . Reported T/C: 102 % of control

Record N#C[CH2][Sn]([I])([c]1ccccc1)[c]1ccccc1 . Reported T/C: 91 % of control

Record Cc1cc(-c2ccc([N+](=O)[O-])cc2)cn1-c1ccccc1 . Reported T/C: 97 % of control

Record O=C(O)c1c(Cl)[nH]c2ccccc12 . Reported T/C: 101 % of control

--- query ---
Record N#C/C(=C\C1CCCCC1Cl)C1CCC([N+](=O)[O-])CC1 (stereo not given) . Reported T/C: 91 % of control

----------
Entries and their T/C
- System: L1210 leukemia ip in BDF1 mice, survival T/C
- Method description: NCI In Vivo Anticancer Drug Screen. Data for tumor model L1210 Leukemia (intraperitoneal) in B6D2F1 (BDF1) mice
- Settings: endpoint: mean survival time; dose: 200.0 mg/kg/injection; schedule: Q01DX009 (ip); vehicle: saline with Tween-80; higher = longer survival
Toxic doses and inconclusive results are not listed.

As a guide, the following entries are already answered.
Record Cc1ccc(S(=O)(=O)N/N=C/c2cccs2)cc1 . Reported T/C: 88 % of control

Record NC(=O)C1CN1Cc1ccccc1 (centres undefined) . Reported T/C: 95 % of control

Record CSc1ccc(NC(=O)Nc2c(C)n(C)n(-c3ccccc3)c2=O)cc1 . Reported T/C: 89 % of control

Record Cc1ccc(C)c(NC(=O)NCc2ccc(Cl)cc2)c1 . Reported T/C: 89 % of control

More entries:
Record Clc1ccc(C2=Nc3c(Cl)ncnc3SC2)cc1 . Reported T/C: 99 % of control

Record c1ccc2c(c1)C1CCC2c2ccccc21 . Reported T/C: 102 % of control

Record O=C(Nc1cccnc1)C1=Cc2ccccc2OC1 . Reported T/C: 94 % of control

Record C=CCSC(C)CC (centres undefined) . Reported T/C: 92 % of control

Record Cc1ccc(S(=O)(=O)Oc2cc(C)ccc2C)cc1 . Reported T/C: 93 % of control

Record CC(C)=CC(=O)O . Reported T/C: 98 % of control

Record CC(=O)NC(CCSCc1c2ccccc2c(C)c2c1ccc1ccccc12)C(=O)O (centres undefined) . Reported T/C: 92 % of control

Record COc1cc2c3c(c1)/C(=N\N)CCN3CCC2 . Reported T/C: 99 % of control

Record CSCC(NC(=O)OCc1ccccc1)C(=O)O (centres undefined) . Reported T/C: 101 % of control

Record O=c1[nH][nH]c(=O)n1-c1ccccc1 . Reported T/C: 93 % of control
